Assay: Identification of proteins required for the processing of the EWS-FLI1 nascent transcript;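 further: robust z of luciferase light less the median z of siRNAs with the same seed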
Conditions: TC32 Ewing sarcoma NR0B1-luc vs CMV-luc (EWS-FLI1 target promoter against control promoter), 48 h; screened at 20 nM (by protocol)
In all, about 59,000 sequences were measured (the read-out: median about -0.00055, lowest 2% from about -2 on). The sample as a whole holds a higher share of the lowest values than the screen did.
result.type: seed-corrected z-score
Kindly provide the number alone.

Some solved cases for reference:
UAUGAUGGAGGCGUAGUUC against MYCL | 0.678
UUGGUGCACAGCCUGGUAC against TSPAN32 | -0.435
AAUACAAUAGCAUAUACUC against RBBP9 | 0.306

Please report the recorded seed-corrected z-score for AGUUUAGCUAUGACAAUGG against C2orf66 .
0.917

Please report the recorded seed-corrected z-score for UUGGAGAUCAAUCCAGCCU against CBFB .
0.537

Please report the recorded seed-corrected z-score for UAUCAUAUUUAAGAGACUG against TSSC1 .
0.912
